testTarget: T1, human ANGPTL3 (human, UniProt Q9Y5C1 17-460)
T1 construct: Biotinylated in the ELISA assays; also called hANGPTL3; free ANGPTL3
T1 sequence: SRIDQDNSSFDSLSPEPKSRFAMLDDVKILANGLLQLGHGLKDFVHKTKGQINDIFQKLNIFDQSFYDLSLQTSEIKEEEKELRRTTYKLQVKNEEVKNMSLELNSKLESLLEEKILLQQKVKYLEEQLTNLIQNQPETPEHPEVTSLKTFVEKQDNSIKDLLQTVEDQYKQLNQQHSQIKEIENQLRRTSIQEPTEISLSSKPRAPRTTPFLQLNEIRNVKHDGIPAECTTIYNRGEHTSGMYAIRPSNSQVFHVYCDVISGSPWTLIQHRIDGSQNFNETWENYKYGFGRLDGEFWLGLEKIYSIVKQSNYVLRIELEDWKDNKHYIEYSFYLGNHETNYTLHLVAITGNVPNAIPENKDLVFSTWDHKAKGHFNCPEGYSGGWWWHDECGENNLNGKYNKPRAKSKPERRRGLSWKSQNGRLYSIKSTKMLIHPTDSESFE
experimentSummary: ELISA; Ab captured by anti-human Fc; biotinylated antigen at 0.046 nM
measure: OD at 560 nm (OD 560 nm)
Give just the numeric value; OD 560 nm need not be written.

Ab with LC variant having a E99Q mutation (SEQ ID NO:25) and a HC of SEQ ID NO:6 (antibody, human IgG4 S228P, kappa, F234A L235A, V domains shown, also called E99Q Variant Ab; E99Q Ab) VH: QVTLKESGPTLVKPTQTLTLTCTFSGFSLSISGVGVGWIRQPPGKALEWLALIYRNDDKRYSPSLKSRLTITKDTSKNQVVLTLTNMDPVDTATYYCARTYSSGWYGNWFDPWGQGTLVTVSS VL: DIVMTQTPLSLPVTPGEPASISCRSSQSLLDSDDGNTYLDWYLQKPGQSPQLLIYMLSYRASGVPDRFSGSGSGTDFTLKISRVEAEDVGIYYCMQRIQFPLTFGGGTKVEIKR = 0.06
anti-ANGPTL3/8 complex Ab having a LC of SEQ ID NO:5 and a HC of SEQ ID NO:6 (antibody, human IgG4 S228P, kappa, F234A L235A, V domains shown, In the ELISA assays tested as IgG from CHO supernatants; also called the Ab) VH: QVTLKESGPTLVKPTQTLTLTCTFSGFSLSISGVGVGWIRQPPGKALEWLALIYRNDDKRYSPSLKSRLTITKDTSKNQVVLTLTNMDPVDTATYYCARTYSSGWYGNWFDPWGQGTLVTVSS VL: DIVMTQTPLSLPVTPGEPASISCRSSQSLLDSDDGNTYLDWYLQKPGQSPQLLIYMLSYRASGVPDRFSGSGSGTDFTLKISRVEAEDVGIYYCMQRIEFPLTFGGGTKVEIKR = 0.06
Ab with LC variant having a D31S mutation (SEQ ID NO:21) and a HC of SEQ ID NO:6 (antibody, human IgG4 S228P, kappa, F234A L235A, V domains shown, also called D31S Variant Ab; D31S Ab) VH: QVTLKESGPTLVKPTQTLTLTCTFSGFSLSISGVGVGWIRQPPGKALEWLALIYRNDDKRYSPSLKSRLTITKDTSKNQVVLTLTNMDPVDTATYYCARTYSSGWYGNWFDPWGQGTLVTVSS VL: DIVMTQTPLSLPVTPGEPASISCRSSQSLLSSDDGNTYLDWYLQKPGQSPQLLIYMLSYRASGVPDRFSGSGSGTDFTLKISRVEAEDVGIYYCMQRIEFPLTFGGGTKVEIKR = 0.06

Now, please, on to the next binder.
Name the reported OD at 560 nm value associated with the binder Ab with LC variant having a D33A mutation (SEQ ID NO:22) and a HC of SEQ ID NO:6 (antibody, human IgG4 S228P, kappa, F234A L235A, V domains shown, also called D33A Variant Ab; D33A Ab) VH: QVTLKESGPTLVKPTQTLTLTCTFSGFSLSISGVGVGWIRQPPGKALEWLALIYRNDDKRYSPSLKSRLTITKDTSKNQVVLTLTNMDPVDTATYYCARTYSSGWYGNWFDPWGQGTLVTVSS VL: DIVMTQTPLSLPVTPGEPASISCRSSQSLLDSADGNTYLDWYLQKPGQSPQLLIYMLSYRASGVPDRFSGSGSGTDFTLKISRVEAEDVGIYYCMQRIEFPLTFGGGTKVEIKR
0.062
